- target: Chymotrypsin (Homo sapiens, UniProt Q99895+P17538+P40313+Q6GPI1)
- experimental_protocol: Inhibition of human chymotrypsin using Suc-AAPF-MCA as substrate at pH 8 and 298 K measured every 60 secs for 600 secs
- Format: protein assay
Bridge positions count the residues as written; N and C are the ends. Square brackets hold non-standard residues; d marks the D form. Peptide text beside a SMILES is read from it. Phe(4-Cl) = N[C@@H](Cc1ccc(Cl)cc1)C(=O)O
Mark each entry yes (1) if its Ki sits below 300 nM, and no (0) for all others.

# example entries with known answers
molecule: CC[C@H](C)[C@@H]1NC(=O)[C@@H]2CCCN2C(=O)[C@@H]2CCCN2C(=O)[C@H](CCC(=O)O)NC(=O)[C@H](CO)NC(=O)[C@H](Cc2ccc(O)cc2)NC(=O)[C@H](C)NC(=O)[C@@H]2CSSC[C@H](NC1=O)C(=O)N[C@@H](Cc1ccccc1)C(=O)N1CCC[C@H]1C(=O)N[C@@H](CC(=O)O)C(=O)NCC(=O)N[C@@H](Cc1ccccc1)C(=O)N2 (cyclo(AYSEPPICFPDGFC); disulfide 8-14)
class_name: yes (1)
//
molecule: C[C@@H](O)[C@@H]1NC(=O)[C@@H]2CSSC[C@H](NC(=O)[C@H](CCC(=O)O)NC(=O)[C@@H]3CCCN3C(=O)[C@@H]3CCCN3C(=O)[C@H](CCC(=O)O)NC(=O)[C@H](CO)NC(=O)[C@H](Cc3ccc(O)cc3)NC1=O)C(=O)N[C@@H](Cc1ccccc1)C(=O)N1CCC[C@H]1C(=O)N[C@@H](CC(=O)O)C(=O)NCC(=O)N[C@@H](CCCNC(=N)N)C(=O)N2 (cyclo(CFPDGRCTYSEPPE); disulfide 1-7)
class_name: yes (1)
//
molecule: N=C(N)NCCC[C@@H]1NC(=O)CNC(=O)[C@H](CC(=O)O)NC(=O)[C@@H]2CCCN2C(=O)[C@H](Cc2ccccc2)NC(=O)[C@@H]2CSSC[C@H](NC1=O)C(=O)N[C@@H](CCC(N)=O)C(=O)N[C@@H](Cc1ccc(Cl)cc1)C(=O)N[C@@H](CO)C(=O)N[C@@H](CCC(=O)O)C(=O)N1CCC[C@H]1C(=O)N1CCC[C@H]1C(=O)N[C@@H](CCC(=O)O)C(=O)N2 (cyclo(CFPDGRCQ[Phe(4-Cl)]SEPPE); disulfide 1-7)
class_name: no (0)
//
molecule: N=C(N)NCCC[C@@H]1NC(=O)CNC(=O)[C@H](CC(=O)O)NC(=O)[C@@H]2CCCN2C(=O)[C@H](Cc2ccccc2)NC(=O)[C@@H]2CSSC[C@H](NC1=O)C(=O)N[C@@H](CCC(N)=O)C(=O)N[C@@H](Cc1ccc(O)cc1)C(=O)N[C@@H](CO)C(=O)N[C@@H](CCC(=O)O)C(=O)N1CCC[C@H]1C(=O)N1CCC[C@H]1C(=O)N[C@@H](CCC(=O)O)C(=O)N2 (cyclo(CFPDGRCQYSEPPE); disulfide 1-7)
class_name: no (0)

Does the reported Ki of CC[C@H](C)[C@@H]1NC(=O)[C@@H]2CCCN2C(=O)[C@@H]2CCCN2C(=O)[C@H](CCC(=O)O)NC(=O)[C@H](CO)NC(=O)[C@H](Cc2ccc(O)cc2)NC(=O)[C@H](CCC(N)=O)NC(=O)[C@@H]2CSSC[C@H](NC1=O)C(=O)N[C@@H](Cc1ccccc1)C(=O)N1CCC[C@H]1C(=O)N[C@@H](CC(=O)O)C(=O)NCC(=O)N[C@@H](CCCNC(=N)N)C(=O)N2 (cyclo(CFPDGRCQYSEPPI); disulfide 1-7) stay below 300 nM?
yes (1)
